// values below are reported TGI
System: RPMI-8226 leukemia
Test: NCI tumour cell line growth inhibition, 48 h

Below, each entry is followed by its recorded TGI result.
{"columns": ["Compound", "TGI"],
 "data": [
  ["CN(C)C(=O)c1nnsc1NN=O", "> 100 µM"],
  ["COC(=O)C(C(=O)C(=O)Nc1c(Cl)cc([N+](=O)[O-])cc1Cl)c1nc2cc(C)c(C)cc2[nH]c1=O (stereo unspecified)", "> 100 µM"],
  ["COc1c(Nc2ncc(Cl)c(N[C@@H]3[C@H]4C=CC(C4)[C@@H]3C(N)=O)n2)ccc2c1CC[C@@H](N1CCOCC1)CC2", "28.5 µM"]
]}

Exercise: Look up and state reported TGI for CCC(C)[C@H]1C(=O)N=C(N)N1C(=O)OCc1ccccc1 (stereo partly specified)
Solution: > 100 µM

Exercise: Look up and state reported TGI for O=C(CC(=O)C(=O)CC(=O)OCc1ccccc1)OCc1ccccc1
Solution: > 100 µM

Exercise: Look up and state reported TGI for O=C(Nc1cccc(-n2cc(-c3ccncc3)c(-c3cc(O)cc(Cl)c3)n2)c1)Nc1ccc(Cl)c(Cl)c1
Solution: 4.3 µM

Exercise: Look up and state reported TGI for COC(=O)C1=C2C3=C(C(=O)c4ccccc4C3=O)N(Cc3ccccc3)C2(OC(C)=O)C=CC1=O (stereo unspecified)
Solution: 8.83 µM

Exercise: Look up and state reported TGI for NC(=O)c1ncn(C2OC(CO)C(O)C2O)n1 (stereo unspecified)
Solution: > 100 µM

Exercise: Look up and state reported TGI for Cc1ccc2c(=O)c(-c3nnsn3)c[nH]c2n1
Solution: > 100 µM

Exercise: Look up and state reported TGI for Cc1cc(O)c2c(c1O)C(=O)c1c(O)ccc(O)c1C2=O
Solution: > 100 µM

Exercise: Look up and state reported TGI for Nc1ccccc1S(=O)c1ccccc1 (stereo unspecified)
Solution: > 100 µM

Source: PubChem BioAssay (NCI)
